B1: PDZK1 (parent)
chain: QKEQGLSDNILSPVMNGGVQTWTQ

Variants of: B1
Test: protein stability index of a GFP-peptide fusion (GPS, HEK-293T) (PSI 1-6); higher = more stable;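 note: lentivirally expressed fusions sorted by FACS into six bins by GFP to DsRed ratio, PSI derived from sequencing read proportions per bin multiplied by bin number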
Settings: c terminus: a fixed tail appended
protein stability index below 2 gives not met; protein stability index at or above it gives met.

variant.description: V14S
assigned.label: met

variant.description: G5T
assigned.label: met

variant.description: L11R
assigned.label: met

variant.description: M15F
assigned.label: not met

variant.description: I10M
assigned.label: met

variant.description: T23F
assigned.label: met

variant.description: Q1L
assigned.label: met

variant.description: D8G
assigned.label: met

variant.description: V14A
assigned.label: met

variant.description: G5P
assigned.label: met

variant.description: Q20I
assigned.label: met

variant.description: Q1M
assigned.label: met

variant.description: L11W
assigned.label: met

variant.description: P13F
assigned.label: not met

variant.description: N16R
assigned.label: met

variant.description: Q4P
assigned.label: met

variant.description: Q20E
assigned.label: not met

variant.description: E3Y
assigned.label: not met

variant.description: V14Y
assigned.label: not met

variant.description: Q24V
assigned.label: met

variant.description: G5Q
assigned.label: met

variant.description: V14P
assigned.label: met

variant.description: K2G
assigned.label: met

variant.description: T23K
assigned.label: met

variant.description: V14E
assigned.label: met

variant.description: G18Y
assigned.label: met

variant.description: S7M
assigned.label: met

variant.description: P13T
assigned.label: met

variant.description: G5F
assigned.label: met

variant.description: N9K
assigned.label: not met

variant.description: E3D
assigned.label: met

variant.description: G17W
assigned.label: not met

variant.description: Q4E
assigned.label: met

variant.description: G17S
assigned.label: met
